Taken from patent US9828351B2.

# Target Desc: recombinant his tagged human SphK1 (Homo sapiens)
# Construct: His tag; made in house; host or cells: insect cells (baculovirus system)
# Sequence (Q9NYA1 whole entry): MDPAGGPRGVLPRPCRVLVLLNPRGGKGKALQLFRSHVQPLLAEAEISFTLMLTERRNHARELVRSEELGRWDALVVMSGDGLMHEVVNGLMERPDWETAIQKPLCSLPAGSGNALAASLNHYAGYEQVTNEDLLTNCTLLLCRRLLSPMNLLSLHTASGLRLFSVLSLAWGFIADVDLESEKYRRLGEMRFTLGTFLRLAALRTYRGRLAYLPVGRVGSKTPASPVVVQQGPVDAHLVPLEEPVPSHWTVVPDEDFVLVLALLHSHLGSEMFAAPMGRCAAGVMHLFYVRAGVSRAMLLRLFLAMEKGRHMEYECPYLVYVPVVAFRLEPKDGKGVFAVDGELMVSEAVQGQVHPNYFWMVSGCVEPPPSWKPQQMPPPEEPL
# Test Description: SphK1 activity assay (32P-labelled S1P production)
# Assay type: biochemical
# Test Parameters: 10 μM compound; % of activity compared to control (DMSO vehicle only)

Compound	activity at 10 µM
Clc1ccc(-c2nnc(NCc3ccncc3)o2)cc1 [Example E-30]	1 to 5%
O=S1NC(c2ccc(Nc3nnc(-c4ccc(Cl)cc4)o3)cc2)=NO1 (stereo not shown) [Example E-28]	< 1%
O=C(Nc1ccc(-c2nnc(-c3ccc(Cl)cc3)o2)cc1)[C@H]1NCC[C@@H]1O [Example E-12]	50 to 80%
Cc1nc(-c2ccc(Nc3nnc(-c4ccc(Cl)cc4)o3)cc2)no1 [Example E-10]	80 to 100%
N=C(N)c1ccc(Nc2nnc(-c3ccccc3)o2)cc1 [Example E-20]	80 to 100%
O=C(NCc1ccc(-c2nnc(-c3ccc(Cl)cc3)o2)cc1)[C@H]1NCC[C@@H]1O [Example E-18]	50 to 80%
Clc1ccc(-c2nnc(Nc3ccc(-c4nn[nH]n4)cc3)o2)cc1 [Example E-27]	20 to 50%
Oc1ccc(Nc2nc(-c3ccc(Cl)cc3)cs2)cc1 [SKI-II, reference compound]	50 to 80%
N=C(N)c1ccc(-c2nnc(-c3ccccc3)o2)cc1 [Example E-17]	200 to 300%
O=C(Nc1ccc(O)cc1)c1csc(-c2ccc(Cl)cc2)n1 [Example E-6]	20 to 50%

----------
# Target Desc: Dihydroceramide Desaturase-1 (Des1) (Homo sapiens, UniProt O15121)
# Construct: These modifications included the use of parental Jurkat cells; endogenous in cells; host or cells: parental Jurkat cells
# Test Description: Dihydroceramide desaturase-1 (Des1) activity by HPLC in intact Jurkat cells labeled with DhCer-C6-NBD
# Type: cell-based
# Test Parameters: intact Jurkat cells; read-out: Des 1 IC50

Compound	IC50
Oc1ccc(Nc2noc(-c3ccc(Cl)cc3)n2)cc1	1000 to 10000 nM
Oc1ccc(Nc2nnc(-c3ccc(Cl)cc3)s2)cc1	1000 to 10000 nM
Oc1ccc(Nc2nc(-c3ccc(Cl)cc3)cs2)cc1 [SKI-II, reference compound]	100 to 1000 nM
Oc1ccc(Nc2nnc(-c3ccccc3)o2)cc1	1000 to 10000 nM
N/C(=N\O)c1ccc(Nc2nnc(-c3ccc(Cl)cc3)o2)cc1	1000 to 10000 nM
Oc1ccc(Nc2nnc(-c3ccc(I)cc3)o2)cc1	1000 to 10000 nM
Oc1ccc(Nc2nc(-c3ccc(Cl)cc3)no2)cc1	1000 to 10000 nM
O=S1NC(c2ccc(Nc3nnc(-c4ccc(Cl)cc4)o3)cc2)=NO1 (centres unmarked)	1000 to 10000 nM
Oc1ccc(Nc2nc(-c3ccc(Cl)cc3)ns2)cc1	100 to 1000 nM
Oc1ccc(Nc2nsc(-c3ccc(Cl)cc3)n2)cc1	100 to 1000 nM
Oc1ccc(Nc2nnc(-c3ccc(Cl)cc3)o2)cc1	100 to 1000 nM

----------
# Target Desc: Dihydroceramide Desaturase-1 (Des1) (Homo sapiens)
# Construct: These modifications included the use of parental Jurkat cells; endogenous in cells; host or cells: parental Jurkat cells
# Sequence (O15121 1-323): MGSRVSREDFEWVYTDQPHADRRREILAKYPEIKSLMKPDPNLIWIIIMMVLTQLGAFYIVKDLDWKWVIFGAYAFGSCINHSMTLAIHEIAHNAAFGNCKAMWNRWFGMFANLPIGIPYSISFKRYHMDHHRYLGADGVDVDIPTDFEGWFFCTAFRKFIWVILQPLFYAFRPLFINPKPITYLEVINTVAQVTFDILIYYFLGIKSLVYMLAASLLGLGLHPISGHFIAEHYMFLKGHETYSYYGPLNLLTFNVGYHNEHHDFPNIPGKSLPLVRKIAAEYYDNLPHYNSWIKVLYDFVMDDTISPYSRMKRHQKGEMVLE
# Test Description: Dihydroceramide desaturase-1 (Des1) activity by HPLC in intact Jurkat cells labeled with DhCer-C6-NBD
# Type: cell-based
pIC50: −log10 of the molar value.
Measured Property: pIC50

Molecule	Test Value
Oc1ccc(Nc2nnc(-c3ccc(C(F)(F)F)cc3)o2)cc1 [Example E-26]	6.00 to 7.00

----------
# Target Desc: recombinant human SphK2 (Homo sapiens)
# Construct: purchased Johnson and Johnson
# Sequence (Q9NRA0 whole entry): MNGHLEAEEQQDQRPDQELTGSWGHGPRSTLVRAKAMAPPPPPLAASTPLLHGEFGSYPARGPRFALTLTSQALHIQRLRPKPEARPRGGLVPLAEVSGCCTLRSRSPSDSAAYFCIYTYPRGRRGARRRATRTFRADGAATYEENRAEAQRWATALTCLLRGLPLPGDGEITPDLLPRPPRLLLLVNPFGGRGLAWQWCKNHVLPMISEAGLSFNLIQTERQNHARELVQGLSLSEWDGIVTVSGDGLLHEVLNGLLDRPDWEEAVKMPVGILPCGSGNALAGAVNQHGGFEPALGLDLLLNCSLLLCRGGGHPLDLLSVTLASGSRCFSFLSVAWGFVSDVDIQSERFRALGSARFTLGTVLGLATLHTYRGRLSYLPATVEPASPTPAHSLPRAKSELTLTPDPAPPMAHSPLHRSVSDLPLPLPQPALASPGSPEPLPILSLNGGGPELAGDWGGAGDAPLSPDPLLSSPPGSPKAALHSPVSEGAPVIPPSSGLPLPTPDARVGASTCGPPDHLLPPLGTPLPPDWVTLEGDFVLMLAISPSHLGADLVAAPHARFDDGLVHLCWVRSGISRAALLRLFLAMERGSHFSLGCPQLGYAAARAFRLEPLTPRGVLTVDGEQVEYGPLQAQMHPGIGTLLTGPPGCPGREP
# Test Description: SphK2 activity assay (32P-labelled S1P production)
# Assay type: biochemical
# Test Parameters: 10 μM compound; % of activity compared to control (DMSO vehicle only); read-out: SphK2% actvity at 10 μm
Measured Property: remaining activity at 10 µM

Compound	Test Value
N=C(N)c1ccc(-c2nnc(-c3ccccc3)o2)cc1	80 to 100%
N=C(N)c1ccc(Nc2nnc(-c3ccccc3)o2)cc1	20 to 50%
Clc1ccc(-c2nnc(Nc3ccc(-c4nn[nH]n4)cc3)o2)cc1	50 to 80%
O=C(Nc1ccc(-c2nnc(-c3ccc(Cl)cc3)o2)cc1)[C@H]1NCC[C@@H]1O	20 to 50%
O=S1NC(c2ccc(Nc3nnc(-c4ccc(Cl)cc4)o3)cc2)=NO1 (stereo not shown)	5 to 20%
Oc1ccc(Nc2nc(-c3ccc(Cl)cc3)cs2)cc1 [SKI-II, reference compound]	80 to 100%
O=C(Nc1ccc(O)cc1)c1csc(-c2ccc(Cl)cc2)n1	50 to 80%
O=C(NCc1ccc(-c2nnc(-c3ccc(Cl)cc3)o2)cc1)[C@H]1NCC[C@@H]1O	80 to 100%
Cc1nc(-c2ccc(Nc3nnc(-c4ccc(Cl)cc4)o3)cc2)no1	50 to 80%
Clc1ccc(-c2nnc(NCc3ccncc3)o2)cc1	20 to 50%
